This collection of values is drawn from ChEMBL document CHEMBL1240482.

Assay: Inhibition of human topoisomerase 2 assessed as decrease in pBR322 mobility on agarose gel by electrophoresis
As shown below, each of these compounds has a reported pIC50 value.
// field semantics: pIC50 = negative decimal log of concentration (mol/L)

{"smilesString": "COc1ccc2c(c1)/C(=N\\OCCN(C)C)c1c-2cnc2ccccc12", "pIC50": 5.17}
{"smilesString": "COc1ccc2c(c1)/C(=N\\OCCN1CCCCC1)c1c-2cnc2ccccc12", "pIC50": 5.00}
{"smilesString": "COc1ccc2c(c1)/C(=N\\OCCCN(C)C)c1c-2cnc2ccccc12", "pIC50": 4.88}

response.value for "COc1ccc2c(c1)/C(=N\OCCCN(C)C)c1c-2c(N2CCNCC2)nc2ccccc12" (field: pIC50) = 5.39

For record "COc1ccc2c(c1)/C(=N\OCCN1CCOCC1)c1c-2c(N2CCNCC2)nc2ccccc12" the listed pIC50 is 5.22

Record summary for "COc1ccc2c(c1)/C(=N\OCCN1CCCC1)c1c-2c(O)nc2ccccc12" : reported pIC50 = 5.08

====

Assay: Cytotoxicity against human BT-483 cells after 48 hrs by MTT assay
Format: functional
Settings: BT-483, 48 h
Parameter GI50: see the listing below.
Reply with just the number (in µM).

// solved cases for GI50 follow
{"compound": "COc1ccc2c(c1)/C(=N\\OCCN1CCOCC1)c1c-2c(N2CCNCC2)nc2ccccc12", "unitString": "µM", "GI50": 3.75}
{"compound": "COc1ccc2c(c1)/C(=N\\OCCN(C)C)c1c-2cnc2ccccc12", "unitString": "µM", "GI50": 3.61}
{"compound": "COc1ccc2c(c1)/C(=N\\OCCN1CCCCC1)c1c-2cnc2ccccc12", "unitString": "µM", "GI50": 5.17}
{"compound": "COc1ccc2c(c1)/C(=N\\OCCN1CCCC1)c1c-2cnc2ccccc12", "unitString": "µM", "GI50": 3.11}
{"compound": "COc1ccc2c(c1)/C(=N\\OCCN1CCOCC1)c1c-2c(O)nc2ccccc12", "unitString": "µM", "GI50": 6.04}
{"compound": "COc1ccc2c(c1)/C(=N\\OCCN1CCCCC1)c1c-2c(N2CCNCC2)nc2ccccc12", "unitString": "µM", "GI50": 4.03}

Sample "COc1ccc2c(c1)/C(=N\OCCCN(C)C)c1c-2cnc2ccccc12" ; GI50 observed: 0.93

Lookup result for "COc1ccc2c(c1)/C(=N\OCCCN(C)C)c1c-2c(O)nc2ccccc12" ; measured GI50: 1.29

compound "COc1ccc2c(c1)/C(=N\OCCN(C)C)c1c-2c(N2CCNCC2)nc2ccccc12" , GI50 observed: 1.1

Summary for this compound, CC[C@@]1(O)C(=O)OCc2c1cc1n(c2=O)Cc2cc3ccccc3nc2-1 [CAMPTOTHECIN] : GI50 is 1.03

====

Tested on: Detroit 551
Assay: Selectivity index, ratio of IC50 for human Detroit 551 cells to IC50 for human PC3 cells
Assay type: functional
The threshold is 3. Values of RatioGI50 beneath it are tagged met; values meeting or exceeding it are tagged not met.

Solved entries:
{"smilesString": "COc1ccc2c(c1)/C(=N\\OCCCN(C)C)c1c-2cnc2ccccc12", "label": "met"}
{"smilesString": "COc1ccc2c(c1)/C(=N\\OCCN1CCCC1)c1c-2c(O)nc2ccccc12", "label": "not met"}
{"smilesString": "COc1ccc2c(c1)/C(=N\\OCCN1CCCC1)c1c-2cnc2ccccc12", "label": "met"}
{"smilesString": "COc1ccc2c(c1)/C(=N\\OCCN1CCCC1)c1c-2c(N2CCNCC2)nc2ccccc12", "label": "met"}

Continue with the next compound.
Q) Item "COc1ccc2c(c1)/C(=N\OCCN1CCCCC1)c1c-2cnc2ccccc12" : RatioGI50 beneath 3, strictly?
A) met

====

System: Nucleic Acid
Test: Binding affinity to pBR322
Type: nucleic-acid assay
Conditions: Escherichia coli
Calls of active or inactive are those of the source. The rule behind the calls is not given here.
quantityName: Activity

Some compounds with recorded Activity:
{"smilesString": "COc1ccc2c(c1)/C(=N\\OCCN1CCCCC1)c1c-2cnc2ccccc12", "testValue": "Active"}
{"smilesString": "COc1ccc2c(c1)/C(=N\\OCCN1CCCCC1)c1c-2c(N2CCNCC2)nc2ccccc12", "testValue": "Active"}
{"smilesString": "COc1ccc2c(c1)/C(=N\\OCCN1CCCC1)c1c-2cnc2ccccc12", "testValue": "Active"}
{"smilesString": "COc1ccc2c(c1)/C(=N\\OCCN(C)C)c1c-2c(N2CCNCC2)nc2ccccc12", "testValue": "Active"}
{"smilesString": "COc1ccc2c(c1)/C(=N\\OCCN1CCCC1)c1c-2c(O)nc2ccccc12", "testValue": "Active"}

Field Activity (entry "COc1ccc2c(c1)/C(=N\OCCCN(C)C)c1c-2c(N2CCNCC2)nc2ccccc12" ) reads Active

"COc1ccc2c(c1)/C(=N\OCCN(C)C)c1c-2c(O)nc2ccccc12" yielded Activity of Active

====

Tested on: Detroit 551
Test: Selectivity index, ratio of IC50 for human Detroit 551 cells to IC50 for human A549 cells
Type: functional
RatioGI50 listing for selected compounds.
Simply state the number, no unit and no words.

Some solved cases for reference:
{"smilesString": "COc1ccc2c(c1)/C(=N\\OCCN(C)C)c1c-2c(O)nc2ccccc12", "RatioGI50": 9.6}
{"smilesString": "COc1ccc2c(c1)/C(=N\\OCCN1CCCCC1)c1c-2c(O)nc2ccccc12", "RatioGI50": 1.08}
{"smilesString": "COc1ccc2c(c1)/C(=N\\OCCCN(C)C)c1c-2c(O)nc2ccccc12", "RatioGI50": 3.32}
{"smilesString": "COc1ccc2c(c1)/C(=N\\OCCN1CCCC1)c1c-2cnc2ccccc12", "RatioGI50": 4.08}
{"smilesString": "COc1ccc2c(c1)/C(=N\\OCCN1CCOCC1)c1c-2c(N2CCNCC2)nc2ccccc12", "RatioGI50": 1.18}

Recorded result, "COc1ccc2c(c1)/C(=N\OCCCN(C)C)c1c-2c(N2CCNCC2)nc2ccccc12" , RatioGI50: 7.29

Short answer for "COc1ccc2c(c1)/C(=N\OCCN1CCCC1)c1c-2c(O)nc2ccccc12" : RatioGI50 was 13.98

Reported RatioGI50 for "COc1ccc2c(c1)/C(=N\OCCCN(C)C)c1c-2cnc2ccccc12" was 1.89

RatioGI50 reported for this compound "COc1ccc2c(c1)/C(=N\OCCN(C)C)c1c-2c(N2CCNCC2)nc2ccccc12" : 3.83

// field: RatioGI50; key: "COc1ccc2c(c1)/C(=N\OCCN1CCCCC1)c1c-2cnc2ccccc12" ; value = 0.74

====

Test: AUC (0 to infinity) in CD1 mouse at 20 mg/ kg, po
Format: ADME, organism-based
Parameters: time infinity, dose 20 mg/ kg, route oral
Conditions: plasma
quantityName: AUC(0-inf) (ng·h/mL)
Report the value in ng·h/mL with no unit label.

Lab note: measured AUC(0-inf) of "COc1ccc2c(c1)/C(=N\OCCN1CCCC1)c1c-2c(O)nc2ccccc12" was 187

====

System: Detroit 551
Assay: Selectivity index, ratio of IC50 for human Detroit 551 cells to IC50 for human PC3 cells
Assay type: functional
Items are presented alongside their recorded RatioGI50.
Respond using a number only.

The molecule listed as "COc1ccc2c(c1)/C(=N\OCCN1CCCCC1)c1c-2c(O)nc2ccccc12" shows RatioGI50 equal to 1.31

Query "COc1ccc2c(c1)/C(=N\OCCN(C)C)c1c-2c(O)nc2ccccc12" yields RatioGI50 of 1.8

Per the records, this molecule ( "COc1ccc2c(c1)/C(=N\OCCN(C)C)c1c-2c(N2CCNCC2)nc2ccccc12" ) has RatioGI50 equal to 0.59

According to the records, this molecule "COc1ccc2c(c1)/C(=N\OCCCN(C)C)c1c-2c(O)nc2ccccc12" displays RatioGI50 of 0.48

====

Biological target: DNA topoisomerase 1 (Homo sapiens) (UniProt P11387)
Sequence (whole entry): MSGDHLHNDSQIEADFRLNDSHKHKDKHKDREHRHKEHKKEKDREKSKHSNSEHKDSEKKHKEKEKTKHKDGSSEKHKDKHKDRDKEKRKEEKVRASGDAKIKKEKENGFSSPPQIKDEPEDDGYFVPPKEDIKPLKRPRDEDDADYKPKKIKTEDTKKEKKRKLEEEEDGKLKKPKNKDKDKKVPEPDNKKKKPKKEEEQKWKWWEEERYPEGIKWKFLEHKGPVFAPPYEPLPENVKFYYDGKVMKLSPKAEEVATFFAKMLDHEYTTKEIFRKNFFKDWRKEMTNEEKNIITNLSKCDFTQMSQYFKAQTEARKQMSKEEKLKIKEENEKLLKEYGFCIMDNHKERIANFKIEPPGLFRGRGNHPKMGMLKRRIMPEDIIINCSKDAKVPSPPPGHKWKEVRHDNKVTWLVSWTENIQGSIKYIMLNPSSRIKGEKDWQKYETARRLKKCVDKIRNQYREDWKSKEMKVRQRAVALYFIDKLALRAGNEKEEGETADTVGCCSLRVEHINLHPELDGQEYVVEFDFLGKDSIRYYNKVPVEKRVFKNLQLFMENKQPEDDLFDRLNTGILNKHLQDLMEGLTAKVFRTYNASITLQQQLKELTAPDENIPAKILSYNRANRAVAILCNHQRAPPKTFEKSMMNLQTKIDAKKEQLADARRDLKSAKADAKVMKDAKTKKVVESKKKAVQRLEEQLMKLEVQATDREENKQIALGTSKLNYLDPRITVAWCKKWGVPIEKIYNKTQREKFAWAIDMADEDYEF
Test: Inhibition of human topoisomerase 1 assessed as decrease in pBR322 mobility on agarose gel at 10 uM by electrophoresis
inhibition reference
Put your answer as a value accompanied by its unit after it.

{"smilesString": "COc1ccc2c(c1)/C(=N\\OCCN(C)C)c1c-2c(O)nc2ccccc12", "testValue": "73%"}
{"smilesString": "COc1ccc2c(c1)/C(=N\\OCCN1CCCC1)c1c-2cnc2ccccc12", "testValue": "67%"}
{"smilesString": "COc1ccc2c(c1)/C(=N\\OCCCN(C)C)c1c-2c(O)nc2ccccc12", "testValue": "3%"}

Form field inhibition, entry "COc1ccc2c(c1)/C(=N\OCCN1CCCC1)c1c-2c(N2CCNCC2)nc2ccccc12" : 48%

compound "COc1ccc2c(c1)/C(=N\OCCN(C)C)c1c-2cnc2ccccc12" , inhibition observed: 82%
